Origin of the recorded values: a collection of fitness landscapes (doi:10.1016/j.celrep.2020.107928)

B1: Caulobacter ParB omega fusion; a variant is named by its letters at X, in order, B8GW30 (parent)
chain: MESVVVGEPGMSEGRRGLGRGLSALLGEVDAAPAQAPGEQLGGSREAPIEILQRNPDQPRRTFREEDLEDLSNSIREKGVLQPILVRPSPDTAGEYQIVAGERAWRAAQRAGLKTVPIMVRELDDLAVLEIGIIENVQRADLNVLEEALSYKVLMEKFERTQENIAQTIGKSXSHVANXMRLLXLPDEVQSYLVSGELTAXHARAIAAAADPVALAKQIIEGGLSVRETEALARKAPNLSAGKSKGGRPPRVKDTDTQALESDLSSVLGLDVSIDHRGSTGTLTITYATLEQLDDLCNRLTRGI

variants of: B1; assay: one-hybrid fitness for binding parS DNA (scaled: cognate 1, non-cognate 0); higher = stronger binding; settings: with parS DNA site
In all, about 81,000 sequences were measured (“one-hybrid fitness for binding parS DNA”: median about -0.17, highest 2% from about 0.51 on). The sample holds the highest values, similar sequences and a random draw of the others, so the mix is not that of the screen.
Test Readout: one-hybrid fitness for binding parS DNA

Example results:
Variant Name	one-hybrid fitness for binding parS DNA
RLQD	≤ 0.2
RSQG	0.995
HFIF	≤ 0.2
RLQG	1.01

Switching to the query record.
# input What one-hybrid fitness for binding parS DNA value was documented for this variant, `YWNN` ?
# output ≤ 0.2
